- CONDITIONS: 338.2 K; 101.33 kPa; Liquid; conductivity meter
Entries annotated with measured electrical conductivity

Any idea what electrical conductivity was measured for CCCCn1cc[n+](C)c1.COS(=O)(=O)[O-] [1-butyl-3-methylimidazolium methyl sulfate] ?
0.867 S/m

Reported electrical conductivity, compound CCCCn1cc[n+](C)c1.F[P-](F)(F)(F)(F)F [1-butyl-3-methylimidazolium hexafluorophosphate] : ____
0.556 S/m

Fill in: electrical conductivity of CCCCn1cc[n+](C)c1.O=S(=O)([O-])C(F)(F)F [1-butyl-3-methylimidazolium trifluoromethanesulfonate] is ___
0.841 S/m

Form field: reported electrical conductivity of CCCCn1cc[n+](C)c1.F[B-](F)(F)F [1-butyl-3-methylimidazolium tetrafluoroborate]
1.08 S/m

---

Collected molar heat capacity at constant pressure values appear next to each entry.
- TEST NAME: molar heat capacity at constant pressure
- CONDITIONS: 353.2 K; 101.33 kPa; Liquid; Small sample (50 mg) DSC
Record the value in J/K/mol, omitting the unit from your answer.

Some compounds with known molar heat capacity at constant pressure results, for comparison:
{"COMPOUND": "CCCCn1cc[n+](C)c1.F[P-](F)(F)(F)(F)F [1-butyl-3-methylimidazolium hexafluorophosphate]", "molar heat capacity at constant pressure, J/K/mol": 443.32}
{"COMPOUND": "CCCCn1cc[n+](C)c1.F[B-](F)(F)F [1-butyl-3-methylimidazolium tetrafluoroborate]", "molar heat capacity at constant pressure, J/K/mol": 391.02}
{"COMPOUND": "CCCCn1cc[n+](C)c1.COS(=O)(=O)[O-] [1-butyl-3-methylimidazolium methyl sulfate]", "molar heat capacity at constant pressure, J/K/mol": 398}

What value of molar heat capacity at constant pressure has been recorded for this entry: CCCCn1cc[n+](C)c1.O=S(=O)([O-])C(F)(F)F [1-butyl-3-methylimidazolium trifluoromethanesulfonate]
467.03

---

# Lookup of reported molar heat capacity at constant pressure keyed by entry
- TEST NAME: molar heat capacity at constant pressure
- CONDITIONS: 323.2 K; 101.33 kPa; Liquid; Small sample (50 mg) DSC
# unit: J/K/mol | format: bare number

As a guide, the following entries are already answered.
{"MOLECULE": "CCCCn1cc[n+](C)c1.O=S(=O)([O-])C(F)(F)F [1-butyl-3-methylimidazolium trifluoromethanesulfonate]", "UNIT ANNOTATION": "J/K/mol", "molar heat capacity at constant pressure": 452.61}
{"MOLECULE": "CCCCn1cc[n+](C)c1.F[B-](F)(F)F [1-butyl-3-methylimidazolium tetrafluoroborate]", "UNIT ANNOTATION": "J/K/mol", "molar heat capacity at constant pressure": 377.46}
{"MOLECULE": "CCCCn1cc[n+](C)c1.COS(=O)(=O)[O-] [1-butyl-3-methylimidazolium methyl sulfate]", "UNIT ANNOTATION": "J/K/mol", "molar heat capacity at constant pressure": 385.49}

For the molecule shown here, CCCCn1cc[n+](C)c1.F[P-](F)(F)(F)(F)F [1-butyl-3-methylimidazolium hexafluorophosphate] , give the reported molar heat capacity at constant pressure.
423.43

---

The entries below come with measured electrical conductivity values attached.
- CONDITIONS: 343.2 K; 101.33 kPa; Liquid; conductivity meter
Numbers only here, please. The scale is S/m.

Solved entries:
{"COMPOUND": "CCCCn1cc[n+](C)c1.F[B-](F)(F)F [1-butyl-3-methylimidazolium tetrafluoroborate]", "PARAMETER MEASURED": "electrical conductivity", "OBS VALUE": 1.25}
{"COMPOUND": "CCCCn1cc[n+](C)c1.COS(=O)(=O)[O-] [1-butyl-3-methylimidazolium methyl sulfate]", "PARAMETER MEASURED": "electrical conductivity", "OBS VALUE": 1.01}

Query: electrical conductivity; subject: CCCCn1cc[n+](C)c1.O=S(=O)([O-])C(F)(F)F [1-butyl-3-methylimidazolium trifluoromethanesulfonate]
0.967

Consider the compound CCCCn1cc[n+](C)c1.F[P-](F)(F)(F)(F)F [1-butyl-3-methylimidazolium hexafluorophosphate] and give its measured electrical conductivity.
0.664

---

The compounds listed here are annotated with their electrical conductivity.
- CONDITIONS: 333.2 K; 101.33 kPa; Liquid; conductivity meter
Give a bare numeral; the unit S/m is implied.

Consider the worked cases shown below.
{"COMPOUND": "CCCCn1cc[n+](C)c1.F[B-](F)(F)F [1-butyl-3-methylimidazolium tetrafluoroborate]", "OBS VALUE": 0.926}
{"COMPOUND": "CCCCn1cc[n+](C)c1.O=S(=O)([O-])C(F)(F)F [1-butyl-3-methylimidazolium trifluoromethanesulfonate]", "OBS VALUE": 0.724}
{"COMPOUND": "CCCCn1cc[n+](C)c1.COS(=O)(=O)[O-] [1-butyl-3-methylimidazolium methyl sulfate]", "OBS VALUE": 0.741}

For the next question, use this compound.
Requested field: electrical conductivity. Item: CCCCn1cc[n+](C)c1.F[P-](F)(F)(F)(F)F [1-butyl-3-methylimidazolium hexafluorophosphate]
0.468

---

Reported values of electrical conductivity for individual entries
- CONDITIONS: 348.2 K; 101.33 kPa; Liquid; conductivity meter

Check out these entries, answers already filled in.
{"COMPOUND": "CCCCn1cc[n+](C)c1.O=S(=O)([O-])C(F)(F)F [1-butyl-3-methylimidazolium trifluoromethanesulfonate]", "OBS VALUE": "1.25 S/m"}
{"COMPOUND": "CCCCn1cc[n+](C)c1.F[B-](F)(F)F [1-butyl-3-methylimidazolium tetrafluoroborate]", "OBS VALUE": "1.67 S/m"}
{"COMPOUND": "CCCCn1cc[n+](C)c1.F[P-](F)(F)(F)(F)F [1-butyl-3-methylimidazolium hexafluorophosphate]", "OBS VALUE": "0.917 S/m"}

Would you kindly share the measured electrical conductivity for CCCCn1cc[n+](C)c1.COS(=O)(=O)[O-] [1-butyl-3-methylimidazolium methyl sulfate] ?
1.32 S/m

---

molar heat capacity at constant pressure values for the compounds below.
- TEST NAME: molar heat capacity at constant pressure
- CONDITIONS: 308.2 K; 101.33 kPa; Liquid; Small sample (50 mg) DSC
Provide only the numeric value, understood in J/K/mol.

Some solved entries appear below for comparison.
{"COMPOUND": "CCCCn1cc[n+](C)c1.F[P-](F)(F)(F)(F)F [1-butyl-3-methylimidazolium hexafluorophosphate]", "OBS VALUE": 417.75}
{"COMPOUND": "CCCCn1cc[n+](C)c1.COS(=O)(=O)[O-] [1-butyl-3-methylimidazolium methyl sulfate]", "OBS VALUE": 380.48}
{"COMPOUND": "CCCCn1cc[n+](C)c1.O=S(=O)([O-])C(F)(F)F [1-butyl-3-methylimidazolium trifluoromethanesulfonate]", "OBS VALUE": 443.96}

Data request, read-out molar heat capacity at constant pressure, for CCCCn1cc[n+](C)c1.F[B-](F)(F)F [1-butyl-3-methylimidazolium tetrafluoroborate]
370.68

---

- CONDITIONS: 318.2 K; 101.33 kPa; Liquid; conductivity meter
PARAMETER MEASURED: electrical conductivity (S/m)
Write the value in S/m as a bare number.

{"COMPOUND": "CCCCn1cc[n+](C)c1.O=S(=O)([O-])C(F)(F)F [1-butyl-3-methylimidazolium trifluoromethanesulfonate]", "electrical conductivity (S/m)": 0.437}
{"COMPOUND": "CCCCn1cc[n+](C)c1.F[B-](F)(F)F [1-butyl-3-methylimidazolium tetrafluoroborate]", "electrical conductivity (S/m)": 0.542}
{"COMPOUND": "CCCCn1cc[n+](C)c1.COS(=O)(=O)[O-] [1-butyl-3-methylimidazolium methyl sulfate]", "electrical conductivity (S/m)": 0.43}

API: the following record is the query input.
Entry CCCCn1cc[n+](C)c1.F[P-](F)(F)(F)(F)F [1-butyl-3-methylimidazolium hexafluorophosphate] : reported electrical conductivity = ?
0.245

---

Below is a list of entries, each paired with its recorded electrical conductivity value.
- CONDITIONS: 353.2 K; 101.33 kPa; Liquid; conductivity meter
The reply should contain only the number, in S/m.

Examples with answers:
{"MOLECULE": "CCCCn1cc[n+](C)c1.F[B-](F)(F)F [1-butyl-3-methylimidazolium tetrafluoroborate]", "PARAMETER MEASURED": "electrical conductivity", "OBS VALUE": 2.18}
{"MOLECULE": "CCCCn1cc[n+](C)c1.COS(=O)(=O)[O-] [1-butyl-3-methylimidazolium methyl sulfate]", "PARAMETER MEASURED": "electrical conductivity", "OBS VALUE": 1.67}
{"MOLECULE": "CCCCn1cc[n+](C)c1.F[P-](F)(F)(F)(F)F [1-butyl-3-methylimidazolium hexafluorophosphate]", "PARAMETER MEASURED": "electrical conductivity", "OBS VALUE": 1.21}

For the next question, use this molecule.
Report electrical conductivity for CCCCn1cc[n+](C)c1.O=S(=O)([O-])C(F)(F)F [1-butyl-3-methylimidazolium trifluoromethanesulfonate] please.
1.57
